Hey, just so you know, these numbers are from patent US20250136564A1.

Data export: log10 of IC50 values recorded with full-length human PTPN2 (TC45) (1-387) protein (Homo sapiens (Human), UniProt P17706).
Sequence (P17706 other isoform, or with tags, fused parts or gaps): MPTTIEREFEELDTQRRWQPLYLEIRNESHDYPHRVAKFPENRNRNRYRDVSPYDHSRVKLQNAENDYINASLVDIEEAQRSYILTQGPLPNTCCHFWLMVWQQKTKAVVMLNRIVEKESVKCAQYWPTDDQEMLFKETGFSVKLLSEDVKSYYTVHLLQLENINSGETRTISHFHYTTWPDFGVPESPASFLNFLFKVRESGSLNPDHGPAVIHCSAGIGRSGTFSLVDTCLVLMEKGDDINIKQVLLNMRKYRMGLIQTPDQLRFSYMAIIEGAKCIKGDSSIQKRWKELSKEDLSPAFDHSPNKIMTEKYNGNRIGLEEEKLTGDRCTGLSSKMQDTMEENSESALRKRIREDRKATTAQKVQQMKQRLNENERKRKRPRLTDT
In plain terms, each number is the log10 of measured IC50 in nM.

Input: // returns reported log10 of IC50 for input O=C1CN(c2c(O)cc3c(c2F)CCCN3Cc2ccccc2)S(=O)(=O)N1
Output: 2.73

Input: # query: log10 of IC50 of entry CC(C)CN1CCCc2c1cc(O)c(N1CC(=O)NS1(=O)=O)c2F
Output: 2.98

Input: Name the recorded log10 of IC50 for O=C1CN(c2c(O)cc3c(c2F)CCCN3CCc2ccccc2)S(=O)(=O)N1 .
Output: 3.21

Input: Please give the measured log10 of IC50 for this compound: O=C1CN(c2c(O)cc3c(c2F)CCCN3)S(=O)(=O)N1
Output: 2.12

Input: log10 of IC50 for CC(C)CCN1CCCc2c1cc(O)c(N1CC(=O)NS1(=O)=O)c2F ?
Output: 2.98

Input: # get_value(readout='log10 of IC50', item= CCN1CCCc2c1cc(O)c(N1CC(=O)NS1(=O)=O)c2F )
Output: 2.94

Input: What value of log10 of IC50 has been reported for the following compound? CN1CCCc2c1cc(O)c(N1CC(=O)NS1(=O)=O)c2F
Output: 2.94

Would you kindly look at the next entry?
Input: Any idea what its log10 of IC50 is? The compound is CC(C)CCNC1CNc2cc(O)c(N3CC(=O)NS3(=O)=O)c(F)c2C1 (stereo not drawn)
Output: 1.11
